Listed next: entries and their corresponding pEC50.
- targetOrTestSystem: Cdc42 WT (Homo sapiens)
- Construct: purchased Cytoskeleton
- Sequence (P60953 whole entry): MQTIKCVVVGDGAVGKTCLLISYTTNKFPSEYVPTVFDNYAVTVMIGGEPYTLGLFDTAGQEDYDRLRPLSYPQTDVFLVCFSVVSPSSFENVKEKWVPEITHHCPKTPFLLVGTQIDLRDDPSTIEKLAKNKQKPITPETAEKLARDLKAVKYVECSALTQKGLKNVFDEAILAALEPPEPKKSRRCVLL
- assayMethodText: Bead-based flow cytometry dose response, BODIPY-FL-GTP binding
- statedConditions: Table 6, R3 analogs; read-out: Cdc42 WT EC50
Scale for pEC50: -log10 of concentration given in mol/L; no unit attached.

compound | experimentalResult
Cc1ccc(C2CC(c3ccccc3)=NN2c2ccc(S(N)(=O)=O)cc2)cc1 (centres unmarked) | 5.30
NS(=O)(=O)c1ccc(N2N=C(c3ccccc3)CC2c2cccc(F)c2)cc1 (centres unmarked) | 5.31
COc1ccc(C2CC(c3ccccc3)=NN2c2ccc(S(N)(=O)=O)cc2)cc1OC (centres unmarked) | 5.24
NS(=O)(=O)c1ccc(N2N=C(c3ccccc3)CC2c2ccc(Br)cc2)cc1 (centres unmarked) | 5.96
NS(=O)(=O)c1ccc(N2N=C(c3ccccc3)CC2c2ccccc2)cc1 (centres unmarked) | 4.50

INPUT: Identify the measured pEC50 of NS(=O)(=O)c1ccc(N2N=C(c3ccccc3)CC2c2cccc(Br)c2)cc1 (centres unmarked) for Cdc42 WT (Homo sapiens).
OUTPUT: 5.48

INPUT: Identify the measured pEC50 of NS(=O)(=O)c1ccc(N2N=C(c3ccccc3)CC2c2ccc(Cl)cc2)cc1 (centres unmarked) for Cdc42 WT (Homo sapiens).
OUTPUT: 5.55

====

- targetOrTestSystem: Cdc42 ACT (Cdc42Q61L) (Homo sapiens, UniProt P60953, Q61L)
- Sequence (P60953 whole entry Q61L): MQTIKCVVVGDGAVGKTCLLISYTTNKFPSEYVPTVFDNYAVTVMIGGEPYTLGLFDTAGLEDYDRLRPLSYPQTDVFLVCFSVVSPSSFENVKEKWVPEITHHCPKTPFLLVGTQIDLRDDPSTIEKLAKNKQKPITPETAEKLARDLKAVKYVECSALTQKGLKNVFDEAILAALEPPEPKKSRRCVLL
- assayMethodText: Bead-based flow cytometry dose response, BODIPY-FL-GTP binding
- statedConditions: Table 5, R2 analogs; read-out: Cdc42 ACT EC50
Listed next: entries and their corresponding pEC50.
Scale for pEC50: -log10 of concentration given in mol/L; no unit attached.

Examples from the recorded data:
molecule | pEC50
COc1ccc(C2=NN(c3ccc(S(N)(=O)=O)cc3)C(c3ccc(OC)cc3)C2)cc1 (stereo not drawn) [CID 15201811] | 5.60
COc1ccc(C2CC(c3cccc(OC)c3)=NN2c2ccc(S(N)(=O)=O)cc2)cc1 (stereo not drawn) [CID 44143698] | 5.80
COc1ccc(C2CC(c3ccsc3)=NN2c2ccc(S(N)(=O)=O)cc2)cc1 (stereo not drawn) [CID 44143713] | 5.14

Here is another molecule to look at.
INPUT: I'd like to know its pEC50. The molecule in question is COc1ccc(C2CC(c3ccccc3OC)=NN2c2ccc(S(N)(=O)=O)cc2)cc1 (stereo not drawn) [CID 44143702]
OUTPUT: 5.26

====

- targetOrTestSystem: Cdc42 WT (Homo sapiens)
- Construct: purchased Cytoskeleton
- assayMethodText: Bead-based flow cytometry dose response, BODIPY-FL-GTP binding
- statedConditions: Table 5, R2 analogs; read-out: Cdc42 WT Efficacy
Listed next: entries and their corresponding Emax.
A number alone suffices; assume %.

compound | measurementLabel | experimentalResult
COc1ccc(C2CC(c3cccc(OC)c3)=NN2c2ccc(S(N)(=O)=O)cc2)cc1 (stereo not drawn) | Emax | 50

INPUT: I'd like to know its Emax. The compound in question is COc1ccc(C2CC(C)=NN2c2ccc(S(N)(=O)=O)cc2)cc1 (stereo not drawn)
OUTPUT: 17

INPUT: I'd like to know its Emax. The compound in question is COc1ccc(C2CC(c3ccsc3)=NN2c2ccc(S(N)(=O)=O)cc2)cc1 (stereo not drawn)
OUTPUT: 47
